Catalogue of melting point readings, one per entry.

                               compound  property_name   assay_result
0  CCCCN(CC)/C(=N\CCc1ccccc1)NC(=N)N.Cl  melting point  228 to 229 °C
1    CCCCN/C(=N\c1ccc(Br)cc1)NC(=N)N.Cl  melting point  195 to 196 °C
2      CCCC/N=C(\NCCc1ccccc1)NC(=N)N.Cl  melting point  178 to 179 °C

q: Entry under review: `CCCCN/C(=N\C1CCCC1)NC(=N)N.Cl` . Reported melting point?
a: 190 to 191 °C

q: What value of melting point has been reported for the following compound? CCC(C)N/C(=N\CCc1ccccc1)NC(=N)N.Cl (stereo not drawn)
a: 181 to 183 °C

q: Could you share which melting point value was measured for `CCCCN/C(=N\C(C)C)NC(=N)N.Cl` ?
a: 173 to 175 °C

---

Tested on: AMPK
assay-protocol: AMPK activation (AMPKα immunoassay kit, phospho-Thr172) in MCF7 cells
Format: cell-based, human
Parameters: unit not given here
condition-notes: 50 uM compound, 24 h
The entries below are paired with their reported AMPK Activation 50 uM (degree of phosphorylated AMPKα Thr172).
Write the number on its own, no unit after it.

>>> print(df.to_string())
                          test_smiles  assay_result
0  CCCCN/C(=N\c1ccc(Br)cc1)NC(=N)N.Cl          26.3

q: // AMPK Activation 50 uM (degree of phosphorylated AMPKα Thr172) lookup, key: `CCCCN/C(=N\Cc1ccccc1)NC(=N)N.Cl`
a: 9.6

---

Test system: AMPK
assay-protocol: AMPK activation (AMPKα immunoassay kit, phospho-Thr172) in MCF7 cells
Type: cell-based, human
Set-up: unit not given here
condition-notes: 50 uM compound, 24 h
property-name: AMPK Activation 50 uM (degree of phosphorylated AMPKα Thr172)
Just the number, please, no unit attached.

Take a look at these entries with their results.
>>> print(df.to_string())
                                test_smiles  assay_result
0  COc1ccc(C/N=C(/NC(=N)N)N(C)Cc2cccc3ccccc23)cc1.Cl          19.5
1                 CCCCCC/N=C(\NC)NC(=N)N.Cl          35.5
2             CN/C(=N\CCc1ccccc1)NC(=N)N.Cl          33.1
3  CCCCN/C(=N\C12CC3CC(CC(C3)C1)C2)NC(=N)N.Cl          35.3
4      CCCCN(CC)/C(=N\CCc1ccccc1)NC(=N)N.Cl           6.6

q: State the recorded AMPK Activation 50 uM (degree of phosphorylated AMPKα Thr172) for this entry: `Cl.N=C(N)N/C(=N/c1ccc(C(F)(F)F)cc1)NCCc1ccccc1`
a: 10.2

q: I have this compound here, `CCCCN/C(=N\Cc1ccc(Cl)c(Cl)c1)NC(=N)N.Cl` , and I need its recorded AMPK Activation 50 uM (degree of phosphorylated AMPKα Thr172).
a: 19.5

q: For the compound shown here, `CCCCN/C(=N\Cc1ccc(OC)cc1)NC(=N)N.Cl` , give the reported AMPK Activation 50 uM (degree of phosphorylated AMPKα Thr172).
a: 29.9

q: Record request: AMPK Activation 50 uM (degree of phosphorylated AMPKα Thr172) value, item `CCCCN/C(=N\CCc1cccs1)NC(=N)N.Cl`
a: 29.9

q: Entry `CN/C(=N\Cc1ccccc1)NC(=N)N.Cl` has what AMPK Activation 50 uM (degree of phosphorylated AMPKα Thr172)?
a: 10.8
